Test system: NCI-H23 lung
Method Description: NCI tumour cell line growth inhibition, 48 h
Quantity: TGI

Recorded TGI for O=c1cc(-c2ccccc2)[nH]c2c(F)ccc(F)c12 , please?
> 100 µM

Queued: COc1ccc(Cn2nc(OCc3ccccc3)c3cc([N+](=O)[O-])ccc32)cc1
> 100 µM

Queued: CC(=O)c1c2c(cc3c1CCC3)CCC2
> 100 µM

Queued: CCC(C)Cn1c(C)nc2c1C(=O)c1ccccc1C2=O (stereo unspecified)
48.4 µM

Queued: Cc1cc(C)c(N)c(CO)c1
> 100 µM

Queued: CCN(CC)CCC1(C(=O)OC)SCCc2ccc(C)cc21 (stereo unspecified)
> 100 µM

Queued: O=C1c2ccccc2-c2c1c1ccccc1c(=O)n2CCCNCCO
4.97 µM

Queued: O=C1CSC2=NC3=C(COC/C3=C\c3ccc(F)cc3)C(c3ccc(F)cc3)N12 (stereo unspecified)
> 100 µM

Queued: CCc1cc(Nc2nccc(-c3c(-c4ccc(OC)c(C(=O)Nc5c(F)cccc5F)c4)nc4ccccn34)n2)c(OC)cc1N1CCC(N2CCN(S(C)(=O)=O)CC2)CC1
> 100 µM

Queued: Cc1ccc(S(=O)(=O)N/N=C/CN2C(=O)c3ccccc3C2=O)cc1
> 100 µM

Queued: O=[P+](O)c1cc2c3ccccc3ccc2c2ccccc12
> 100 µM

----------
System: UACC-257 melanoma
Method Description: NCI tumour cell line growth inhibition, 48 h; in the data active = GI50 below about 0.43 µM; inactive = the rest
I would appreciate it if you answered using one of these outcomes: yes (1) (active), no (0) (inactive)

- Compound: "CCCCOc1nc2ccccc2cc1C1CNC(=O)c2ccccc2N1 (centres undefined)"
  Class Label: "no (0)"
- Compound: "COc1ccc(OC)c(/C=C/C(=O)c2ccc(SC)cc2)c1"
  Class Label: "no (0)"
- Compound: "COc1cc(C2CC(c3cc(Cl)c(C)cc3O)=NN2c2ccc(S(N)(=O)=O)cc2)cc(OC)c1OC (centres undefined)"
  Class Label: "no (0)"
- Compound: "Cc1c(-c2ccnc(N)n2)c2c(n1-c1ccccc1)C(=O)c1ccccc1C2=O"
  Class Label: "no (0)"
- Compound: "CCN(CC)Cc1cc(Nc2c3ccc(Cl)cc3nc3c(C)cccc23)ccc1O"
  Class Label: "no (0)"

Check the results log: what was the call for COc1cccc2c1C(=O)c1c(O)c3c(c(O)c1C2=O)C[C@@](O)(C(=O)CO)CC3OC1CC(NCCCCC(OC(C)=O)OC(C)=O)C(O)C(C)O1 (some centres undefined) ?
yes (1)

Queued: COc1ccc(CN[C@H]2CCc3cc(OC)c(OC)c(OC)c3-c3ccc(SC)c(=O)cc32)c(OC)c1OC
yes (1)

Queued: O=C(CN1CCN(c2cc3c(cc2F)c(=O)c(C(=O)O)cn3C2CC2)CC1)Nc1ccc(C(=O)/C=C/c2ccccc2)cc1
no (0)

Queued: O=C(Nc1ccc(I)cc1F)c1cc(F)ccc1O
yes (1)

----------
System: A549 NSCLC
Method Description: NCI tumour cell line growth inhibition, 48 h
Quantity: TGI

Query for A549 NSCLC: what TGI does the record show for COc1cc2c3c4[n+](cc2c(OC)c1OC)CCC4CCC3 (stereo not given) ?
> 100 µM

Queued: c1ccc2c(Nc3ccc4c(c3)OCO4)c3ccoc3nc2c1
35.8 µM
